biological target: human GPR55 (Homo sapiens); construct: host or cells: CHO cells; assay: β-Arrestin PathHunter assay, recombinant CHO cells expressing GPR55; type: cell-based; conditions: agonist mode, value in parentheses
Sequence (Q9Y2T6 whole entry): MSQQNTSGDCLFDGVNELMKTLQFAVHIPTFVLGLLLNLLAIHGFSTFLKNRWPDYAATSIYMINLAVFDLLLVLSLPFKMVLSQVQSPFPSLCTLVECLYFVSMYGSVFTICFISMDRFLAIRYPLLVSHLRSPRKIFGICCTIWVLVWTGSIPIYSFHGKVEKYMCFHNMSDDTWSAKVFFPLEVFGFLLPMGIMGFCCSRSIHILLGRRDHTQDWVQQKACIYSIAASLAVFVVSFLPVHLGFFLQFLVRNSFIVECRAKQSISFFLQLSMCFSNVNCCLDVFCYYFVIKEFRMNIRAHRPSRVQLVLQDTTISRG
test-readout: Human GPR55 % activation (%)

# compound, test-readout, result-number
records = [
    ("CC(C)[C@H](NC(=O)c1nn(CC2CCCCC2)c2ccccc12)C(N)=O [compound 20]", "Human GPR55 % activation", 8),
    ("CC(C)[C@H](NC(=O)c1nn(CCCCCCl)c2ccccc12)C(N)=O [compound 17, 5Cl-AB-PINACA]", "Human GPR55 % activation", 17),
    ("COC(=O)[C@@H](NC(=O)c1cn(CC2CCCCC2)c2ccccc12)C(C)(C)C [compound 13, MDMB-CHMICA]", "Human GPR55 % activation", 5),
    ("CCCCCn1cc(C(=O)NC(C)(C)c2ccccc2)c2ccccc21 [compound 31, Cumyl-PICA]", "Human GPR55 % activation", 11),
    ("NC(=O)[C@H](Cc1ccccc1)NC(=O)c1cn(CCCCCF)c2ccccc12 [compound 27, PX-1]", "Human GPR55 % activation", 6),
    ("CC(C)[C@H](NC(=O)c1nn(CCCCCF)c2ccccc12)C(N)=O [compound 16, 5F-AB-PINACA]", "Human GPR55 % activation", 15),
    ("NC(=O)[C@H](Cc1ccccc1)NC(=O)c1nn(Cc2ccc(F)cc2)c2ccccc12 [compound 29, APP-FUBINACA]", "Human GPR55 % activation", 26),
    ("CCCCCn1nc(C(=O)N[C@H](C(=O)OC)C(C)C)c2ccccc21 [compound 6, AMB]", "Human GPR55 % activation", 15),
    ("CC[C@H](C)[C@H](NC(=O)c1nn(CCCCCF)c2ccccc12)C(N)=O (single isomer, unassigned; isomer 2) [compound 26, 5F-ADB-PINACA-isomer 2]", "Human GPR55 % activation", 2),
    ("CC(C)[C@H](NC(=O)c1nn(Cc2ccccc2F)c2ccccc12)C(N)=O [compound 19, AB-FUBINACA (2-F-benzyl-isomer)]", "Human GPR55 % activation", 15),
    ("NC(=O)[C@H](Cc1ccccc1)NC(=O)c1nn(CC2CCCCC2)c2ccccc12 [compound 30]", "Human GPR55 % activation", 11),
    ("CCCCCn1c2ccccc2c2cc(C(=O)c3cccc4ccccc34)ccc21 [compound 39, EG-018]", "Human GPR55 % activation", 0),
    ("NC(=O)[C@H](Cc1ccccc1)NC(=O)c1nn(CCCCCF)c2ccccc12 [compound 28, PX-2]", "Human GPR55 % activation", 16),
    ("CC(C)(C)[C@H](NC(=O)c1nn(CCCCCF)c2ccccc12)C(N)=O [compound 23, 5F-ADB-PINACA]", "Human GPR55 % activation", 18),
    ("CCCCCn1cc(C(=O)N[C@H](C(=O)OC)C(C)C)c2ccccc21 [compound 5, MMB-018]", "Human GPR55 % activation", 5),
    ("COC(=O)[C@@H](NC(=O)c1nn(CCCCCF)c2ccccc12)C(C)(C)C [compound 11, 5F-ADB]", "Human GPR55 % activation", 0),
]
